Molecular target: human CXCR3 (N-delta 4) (Homo sapiens)
Construct: CD8 leader (N); Flag tag; expressed in transfected cells; membrane preparation
Assay: Human CXCR3 (N-delta 4) Scintillation Proximity Assay (SPA), [125I] IP-10 binding
Conditions: Ba/F3-hCXCR3 (N-delta 4) membranes, 25 pM [125I] IP-10; read-out: IC50 value
Observation type: IC50 (nM)

INSERT INTO measurements (chemical_structure, recorded_number) VALUES
  ('CC[C@H]1CN(c2nc3c(nc2Cl)CNc2c(c(=O)c2=O)N3)CCN1C1CCN(Cc2ccc(Cl)cc2F)CC1', 0.3);

###

Molecular target: human CXCR3 (N-delta 4) (Homo sapiens, UniProt P49682)
Construct: CD8 leader (N); Flag tag; expressed in transfected cells; membrane preparation
Sequence (P49682 5-368 limits assumed): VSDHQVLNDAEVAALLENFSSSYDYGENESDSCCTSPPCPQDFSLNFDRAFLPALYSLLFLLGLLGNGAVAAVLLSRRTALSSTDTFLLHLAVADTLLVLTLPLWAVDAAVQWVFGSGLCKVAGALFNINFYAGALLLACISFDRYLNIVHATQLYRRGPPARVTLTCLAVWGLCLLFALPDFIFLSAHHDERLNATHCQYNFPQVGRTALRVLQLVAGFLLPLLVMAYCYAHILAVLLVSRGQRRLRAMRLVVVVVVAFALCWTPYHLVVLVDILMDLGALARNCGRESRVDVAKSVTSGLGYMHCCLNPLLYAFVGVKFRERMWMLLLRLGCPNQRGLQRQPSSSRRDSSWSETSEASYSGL
Test: Human CXCR3 (N-delta 4) Scintillation Proximity Assay (SPA), [125I] IP-10 binding
Conditions: IC50 ratings; Ba/F3-hCXCR3 (N-delta 4) membranes, 25 pM [125I] IP-10; read-out: IC50
pIC50: −log10 of the molar value.
Observation type: pIC50

INSERT INTO assay_data (molecule, tested_target, observation_type, result) VALUES
  ('CC[C@H]1CN(c2nc3[nH]c(=O)[nH]c3nc2Cl)CCN1C1CCN([C@H](C(=O)OC)c2ccc(Cl)cc2)CC1 [Compound 30]', 'human CXCR3 (N-delta 4) (Homo sapiens, UniProt P49682)', 'pIC50', '< 7.00'),
  ('CC[C@H]1CN(c2nc3c(nc2Cl)CNC(=O)N3)CCN1C1CCN(C(=O)c2ccc(Cl)nc2N)CC1 [Compound 16]', 'human CXCR3 (N-delta 4) (Homo sapiens, UniProt P49682)', 'pIC50', '> 7.60'),
  ('CC[C@H]1CN(c2nc3nc(C)n(CC)c(=O)c3nc2Cl)CCN1C1CCN(Cc2ccc(Cl)cc2F)CC1 [Compound 23]', 'human CXCR3 (N-delta 4) (Homo sapiens, UniProt P49682)', 'pIC50', '7.00 to 7.60'),
  ('CC[C@H]1CN(c2nc3[nH]c(=O)[nH]c3nc2Cl)CCN1C1CCN([C@@H](CO)c2ccc(Cl)cc2)CC1 [Compound 3]', 'human CXCR3 (N-delta 4) (Homo sapiens, UniProt P49682)', 'pIC50', '> 7.60'),
  ('CC[C@H]1CN(c2nc3[nH]c(=O)[nH]c3nc2Cl)CCN1C1CCN(Cc2ccc(Cl)cc2F)CC1 [Compound 6]', 'human CXCR3 (N-delta 4) (Homo sapiens, UniProt P49682)', 'pIC50', '> 7.60'),
  ('CC[C@H]1CN(c2nc3[nH]c(=O)[nH]c3nc2Cl)CCN1C1CCN(C(C#N)c2ccc(Cl)cc2)CC1 (mixture of isomers) [Compound 33]', 'human CXCR3 (N-delta 4) (Homo sapiens, UniProt P49682)', 'pIC50', '< 7.00'),
  ('CC[C@H]1CN(c2nc3c(nc2Cl)CNc2c(c(=O)c2=O)N3)CCN1C1CCN(Cc2ccc(Cl)cc2F)CC1 [Compound 1]', 'human CXCR3 (N-delta 4) (Homo sapiens, UniProt P49682)', 'pIC50', '> 7.60');

// data source = patent US7763616B2
